Experiment: Inhibition of sodium channel (unknown origin)
Set-up: species or system Homo sapiens
parameterMeasured: IC50 (µM)
Response body: numeric value in µM, unit text excluded.

Query: Respond only with IC50 recorded for CC(C)[C@@H](NC(=O)[C@@H]1CCC[C@@H]1N)C(=O)N1CC[C@](O)(c2ccc(Cl)cc2)C(C)(C)C1
Result: 39

----------
Species: Homo sapiens
Experiment: Inhibition of sodium channel (unknown origin) at 10 uM
parameterMeasured: inhibition (%)
Response body: numeric value in %, unit text excluded.

Query: Respond only with inhibition recorded for CC(C)[C@@H](NC(=O)[C@H]1CC[C@@H](O)C1)C(=O)N1CC[C@](O)(c2ccc(Cl)cc2)C(C)(C)C1 (mixture of isomers)
Result: 19

Query: Respond only with inhibition recorded for CC(C)[C@@H](NC(=O)[C@H]1CC[C@H](O)C1)C(=O)N1CC[C@](O)(c2ccc(Cl)cc2)C(C)(C)C1 (mixture of isomers)
Result: 4

Query: Respond only with inhibition recorded for CC(C)[C@@H](NC(=O)c1cccc(S(N)(=O)=O)c1)C(=O)N1CC[C@](O)(c2ccc(Cl)cc2)C(C)(C)C1
Result: 39

Query: Respond only with inhibition recorded for CC(C)[C@@H](NC(=O)c1cccc(C(=O)O)c1)C(=O)N1CC[C@](O)(c2ccc(Cl)cc2)C(C)(C)C1
Result: 3
